- TEST_METHOD_NOTES: Confirmatory qHTS for Identification of Small Molecule Inhibitors of Huntingtin Promoter Activity; note: nearly all actives have a fitted effect of over 65% in size
- CONDITION: HEK293 HTT promoter firefly luciferase reporter, 24 h; series mostly up to 57.5 µM
Results filed as inconclusive are left out. The source made the active and inactive calls. Calls come from the whole dose curve; as a rule, active = well fitted inhibition curve with a large enough effect; inconclusive = small, poorly fitted or top-dose-only effect; inactive = no such curve, though single readings can be large or run the other way.
Labels: Y (active), N (inactive)

molecule=CCOc1ccc(NC(=O)c2cccn(Cc3cccc(Cl)c3)c2=O)cc1 group_label=N
molecule=O=c1c2ccccc2nc(/C=C/c2cccc3ccccc23)n1-c1ccccc1Cl group_label=N
molecule=Cc1cccc(-n2c(/C=C\c3cccc(Br)c3)nc3ccccc3c2=O)c1 group_label=N
molecule=COc1ccc(-n2c(/C=C\c3ccccc3F)nc3ccccc3c2=O)cc1OC group_label=N
molecule="CNC(=O)N1N=C(c2ccc(N)cc2)c2cc3c(cc2CC1C)OCO3 (stereo unspecified)" group_label=N
molecule=Nc1c(C(=O)Nc2ccc(Cl)c(C(F)(F)F)c2)sc2nc3c(cc12)N1CCC3CC1 group_label=Y

---

- TEST_METHOD_NOTES: Confirmatory qHTS for Identification of Small Molecule Inhibitors of Huntingtin Promoter Activity; note: nearly all actives have a fitted effect of over 65% in size
- CONDITION: HEK293 HTT promoter firefly luciferase reporter, 24 h; series mostly up to 57.5 µM
Results filed as inconclusive are left out. Calls of active or inactive are those of the source. Calls come from the whole dose curve; as a rule, active = well fitted inhibition curve with a large enough effect; inconclusive = small, poorly fitted or top-dose-only effect; inactive = no such curve, though single readings can be large or run the other way.
Labels: t = active, f = inactive

smiles_structure=CC(C)N[C@@H]1CCn2c(=O)[nH]c3cccc(c32)[C@@H]1O group_label=f
smiles_structure=CCCCc1ccc(NC(=O)c2cccn(Cc3ccc(Cl)cc3)c2=O)cc1 group_label=f
smiles_structure=Cc1ccccc1Cn1cccc(C(=O)Nc2nc3ccccc3s2)c1=O group_label=t
smiles_structure=CC(C)(O)C=CC(=O)[C@](C)(O)[C@H]1[C@H](O)C[C@]2(C)[C@@H]3CC=C4[C@@H](C=C(O)C(=O)C4(C)C)[C@]3(C)C(=O)C[C@@]12C group_label=t
smiles_structure=O=C(N[C@H]1CN2CCC1CC2)c1ccc(Cl)cc1 group_label=f
